B1: ZNF449 (parent)
chain: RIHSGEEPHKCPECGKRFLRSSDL

Variants of: B1
Test: protein stability index of a GFP-peptide fusion (GPS, HEK-293T) (PSI 1-6); higher = more stable;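 further: lentivirally expressed fusions sorted by FACS into six bins by GFP to DsRed ratio, PSI derived from sequencing read proportions per bin multiplied by bin number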
Conditions: c terminus: a fixed tail appended
# protein stability index values compiled below
Number only, no unit.

>  <changes>
G5W

>  <quantity>
protein stability index

>  <result.number>
3.63

$$$$
>  <changes>
G5A

>  <quantity>
protein stability index

>  <result.number>
3.79

$$$$
>  <changes>
R17H

>  <quantity>
protein stability index

>  <result.number>
4.23

$$$$

Ask: Supply measured protein stability index of "S21C" in your reply.
Reply: 3.69

Ask: Supply measured protein stability index of "K16R" in your reply.
Reply: 3.9

Ask: Supply measured protein stability index of "E7R" in your reply.
Reply: 1.89

Ask: Supply measured protein stability index of "H3V" in your reply.
Reply: 3.34

Ask: Supply measured protein stability index of "S21Q" in your reply.
Reply: 2.75

Ask: Supply measured protein stability index of "H3S" in your reply.
Reply: 3.74

Ask: Supply measured protein stability index of "S4N" in your reply.
Reply: 4

Ask: Supply measured protein stability index of "S22K" in your reply.
Reply: 2.57
